tested on: corn (Zea mays); test: Test G Post-Emergence Protocol; type: in vivo; conditions: Zea mays, post-emergence, 312 h, 62.5 g ai/ha, evaluated after 13 days, 100=total damage to plant, 0=no damage to plant, read-out: Corn damage rating
Entries annotated with measured plant injury at 62.5 g/ha
Kindly answer with a numeric value in %, unit omitted.

Solved entries (count: 3):
- CN1C[C@H](c2ccc(C(F)(F)F)cc2)[C@@H](C(=O)Nc2cccnc2[S+](C)[O-])C1=O (mixture of isomers): 10
- COc1cc(C2CN(C)C(=O)C2C(=O)Nc2cccc(F)c2F)cc(F)c1F (stereo not drawn): 0
- Cc1c(F)cccc1NC(=O)[C@@H]1C(=O)N(C)C[C@H]1c1cc(Cl)c(F)c(Cl)c1 (racemic): 40

plant injury at 62.5 g/ha lookup needed for CN1C[C@H](c2cccc(C(F)F)c2)[C@@H](C(=O)Nc2cnccc2C(F)(F)F)C1=O (racemic) , thanks.
0

Can you look up the measured plant injury at 62.5 g/ha of CN1C[C@H](c2ccc(C(F)(F)F)cc2)[C@@H](C(=O)Nc2ccc[n+]([O-])c2F)C1=O (racemic) for me?
0

Find the recorded plant injury at 62.5 g/ha belonging to Cc1c(F)cccc1NC(=O)[C@@H]1C(=O)N(C)C[C@H]1c1cccc(C(C)(C)O)c1 (racemic) and report it.
0

For the compound CN1C[C@H](c2cccc(C(F)F)c2)[C@@H](C(=O)Nc2ccccc2S(C)(=O)=O)C1=O (racemic) , what plant injury at 62.5 g/ha is on record?
0

Which value of plant injury at 62.5 g/ha has been reported for Cc1c(F)cccc1NC(=O)[C@@H]1C(=O)N(C)C[C@H]1c1cccc(OCC(F)(F)F)c1 (racemic) in the records?
10

Given CCOc1cc(C2CN(C)C(=O)C2C(=O)Nc2cccc(F)c2F)ccc1OC (stereo not drawn) , state its recorded plant injury at 62.5 g/ha.
0
